The values you see were collected from patent US4154932A.

System: Rat Vocalization
Test: Rat Vocalization (analgetic activity)
Format: in vivo
Settings: ratio of ED50 po/sc; Table 2

[
  {
    "COMPOUND": "Oc1ccc2c(c1)[C@@]13CCCC[C@@]1(O)[C@@H](C2)N(CC1CCC1)CC3 [Butorphanol]",
    "Rat Vocalization po/sc": 69
  },
  {
    "COMPOUND": "CN1CC[C@]23c4c5ccc(O)c4O[C@H]2[C@@H](O)C=C[C@H]3[C@H]1C5 [Morphine SO4]",
    "Rat Vocalization po/sc": 11
  },
  {
    "COMPOUND": "Oc1ccc2c(c1)[C@]13CCN(CC4CC4)[C@H](C2)[C@@H]1CCOC3 [(-)-XI]",
    "Rat Vocalization po/sc": 18
  }
]
